# normalized growth listing for each entry below
test: chemical genetic growth profiling, strain panel (AID 1159580);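 also: tested at 20 µM; growth read once vehicle control cultures reached saturation at 30 °C; 1 = growth at the plate median or of vehicle wells; lower values mean less growth of the strain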; conditions: S. cerevisiae deletion strains, growth OD, locus YNL197C, strain WHI3, stronger effect = lower value
In all, about 5,500 compounds went through this assay and about 2,000 (36%) were called active. Not shown: some 18% with an inconclusive outcome. Some of the results follow.

Compound	normalized growth
CC(=O)N[C@H](C(=O)O)C(C)(C)SN=O	1.01
CCCN1CCCC2Cc3[nH]ncc3CC21 (stereo not drawn)	0.992
CC(NC(C)(C)C)C(=O)c1cccc(Cl)c1 (stereo not drawn)	1.02
CCCn1cnc2c1c(=O)n(CCCCC(C)=O)c(=O)n2C	0.996
O=C(O)CC[N+](=O)[O-]	1.01
CNCCC(Oc1ccccc1OC)c1ccccc1 (stereo not drawn)	1.01
COC(=O)[C@H](NC(=O)c1cc(-c2ccccc2)nc2ccccc12)c1ccccc1	0.989
Nc1nc(SCc2ccc([N+](=O)[O-])cc2)c2ncn([C@@H]3O[C@H](CO)[C@H](O)C3O)c2n1 (stereo partly drawn)	1
C=CC[C@H](N)C(=O)O	0.976
COc1ccc(CNC(=O)/C=C/c2ccc3[nH]cc(CCN(C)C)c3c2)cc1	1
NC(CCP(=O)(O)O)C(=O)O (stereo not drawn)	0.983
OC[C@H]1O[C@@H](n2cnc3c(NC4CCCCC4)ncnc32)[C@H](O)[C@@H]1O	1.01
NC(C(=O)N[C@@H]1C(=O)N2C(C(=O)O)=C(Cl)CS[C@H]12)c1ccccc1 (stereo partly drawn)	0.99

* * *

assay: chemical genetic growth profiling, strain panel (AID 1159580); conditions: S. cerevisiae deletion strains, growth OD, locus YDL005C, strain med2, stronger effect = lower value
Screen size: about 5,500 compounds; about 2,000 (36%) were called active. Another 18% or so got no clear call; they are omitted. Some of the results follow.
// values below are reported normalized growth

Compound	normalized growth
O=C1C=C(O)c2ccccc2C1=O	0.947
COc1ccc(NS(=O)(=O)c2ccc(N)cc2)nn1	0.998
CCCN(CCC)c1c([N+](=O)[O-])cc(C(F)(F)F)cc1[N+](=O)[O-]	1.01
O=C1c2ccccc2C(=O)c2ccccc21	0.999
Cn1c(=O)[nH]c2ncn(C)c2c1=O	0.962
COc1ccc([C@@H](C)C(=O)c2ccc(O)cc2O)cc1	0.969
CC(=O)OC1CCC2(O)CC1(C)CCC1C2CC1(C)C (stereo not given)	1.02
CNC(=O)N(C)c1nnc(C(C)(C)C)s1	0.982
O=C(O)C1=C(CSc2nnnn2CS(=O)(=O)O)CS[C@@H]2C(NC(=O)[C@H](O)c3ccccc3)C(=O)N12 (stereo not given in full)	0.98
Cc1cc2nc3c(=O)[nH]c(=O)nc-3n(CC(O)C(O)C(O)CO)c2cc1C (stereo not given)	0.99
CC(C)N1C(=O)c2ccccc2NS1(=O)=O	0.973
C=C(C)C1Cc2c(ccc3c(=O)c4c(oc23)COc2cc(OC)c(OC)cc2-4)O1 (stereo not given)	0.997
Cn1cnc2c1c(=O)[nH]c(=O)n2C	0.989
O=C1c2cccc(O)c2C(=O)c2c(O)cccc21	0.167
C=C[C@H]1CN2CC[C@H]1C[C@H]2[C@H](O)c1ccnc2ccccc12	0.997
COCC1=C(C(=O)OC(C)OC(=O)OC(C)C)N2C(=O)[C@@H](NC(=O)/C(=N\OC)c3csc(N)n3)[C@H]2SC1 (stereo not given in full)	0.966
COc1ccccc1OCC(O)COC(N)=O (stereo not given)	0.987
O=C(CCc1ccc(O)cc1)c1c(O)cc(O)cc1O	1.02
CCC1(C2=NCCN2)Cc2ccccc2O1 (stereo not given)	1
CCCc1ncc(C[n+]2ccccc2C)c(N)n1	0.929

* * *

Below, each entry is listed alongside its reported normalized growth.
assay: chemical genetic growth profiling, strain panel (AID 1159580);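 also: tested at 20 µM; growth read once vehicle control cultures reached saturation at 30 °C; 1 = growth at the plate median or of vehicle wells; lower values mean less growth of the strain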; settings: S. cerevisiae deletion strains, growth OD, locus YNR030W, strain Alg12, stronger effect = lower value
The campaign covered roughly 5,500 compounds. About 2,000 (36%) were called active. Inconclusive results (about 18%) are left out. Some of the results follow.

Compound	normalized growth
COc1c([N+](=O)[O-])cc(C(F)(F)F)cc1[N+](=O)[O-]	0.975
CCOC(=O)CCC(C#N)(c1ccc(Cl)cc1)N1CCOCC1 (stereo not drawn)	0.985
Cn1nccc1NS(=O)(=O)c1ccc(C(C)(C)C)cc1	1
Cc1ccc(NC(=S)C(C#N)C(=O)N2CCCC2)c(C)c1 (stereo not drawn)	1.02
C=CC1CN2CCC1CC2C(OC(C)=O)c1ccnc2ccc(OC)cc12 (stereo not drawn)	0.998
O=C(O)c1cccc([N+](=O)[O-])c1C(=O)Nc1ccc(F)cc1	0.996
COc1cc2ncnc(Nc3cccc(Cl)c3)c2cc1OC	0.82
CC(C)(C)S(=O)(=O)c1cnc(N)nc1N	1.03
NC(=O)C1=C(O)C(=O)N(C2CCCCC2)C1	1.03
Cc1c(-c2csc(-c3ccc(Cl)cc3)n2)sc2ccc(Cl)cc12	1.04
Nc1c(Cl)cc(C(=O)Nc2cc(Cl)cc(Cl)c2)cc1Cl	0.778
COc1cc(C2Nc3cccc4cccc(c34)N2)cc(OC)c1OC	0.736
Cc1cccc(NC(=O)c2ccccc2)c1	0.951
COc1ccccc1C1CCN(c2ncnc3scc(-c4ccccc4)c23)CC1	1
O=[N+]([O-])c1cc(Cl)c(Sc2ccccc2)cc1Sc1ccccc1	0.977
O=C(CSCc1c(Cl)cccc1Cl)NNC(=S)NC1CC2C=CC1C2 (stereo not drawn)	0.781
Cc1nc(C(F)(F)F)nc(Sc2n[nH]c(-c3cc(Cl)cc(Cl)c3)n2)c1C	0.974
CCCCC#Cc1ccc(C(=O)NNC(=O)Nc2cc(Cl)cc(Cl)c2)o1	0.995
Nc1nc(Sc2cc(-n3cccc3)c(Cl)cc2[N+](=O)[O-])n[nH]1	0.995
COc1ccc(/C=C2/C(=O)N(c3cccc(Cl)c3)N=C2C)cc1	0.88
O=C1NCCN=C(c2ccccc2)c2ccccc21	1
COc1ccccc1NC(=S)NCCc1ccc(OC)c(OC)c1	1.02
Cc1cc(Oc2c([N+](=O)[O-])cc(C(F)(F)F)cc2[N+](=O)[O-])c2c(Cl)ccc(C)c2n1	0.623
O=C(CNc1cccc(Cl)c1)c1ccc(Cl)cc1	0.89
Cc1ccc(S(=O)(=O)N2CCC(C(c3ccccc3)c3ccccc3)CC2)cc1	1.01
O=C(O)c1ccccc1Sc1c(C(=O)O)cc([N+](=O)[O-])cc1[N+](=O)[O-]	1.01
O=[N+]([O-])c1cc(C(F)(F)F)ccc1Sc1ccc(Cl)cc1	0.978
O=C(Cc1ccccc1)NC1CCN(S(=O)(=O)c2ccc(Cl)cc2)CC1	1

* * *

test: chemical genetic growth profiling, strain panel (AID 1159580);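 also: tested at 20 µM; growth read once vehicle control cultures reached saturation at 30 °C; 1 = growth at the plate median or of vehicle wells; lower values mean less growth of the strain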; conditions: S. cerevisiae deletion strains, growth OD, locus YNL128W, strain TEP1, stronger effect = lower value
Among all 5,500 compounds or so, about 2,000 (36%) were called active. Not shown: some 18% with an inconclusive outcome. The list shows a part of the results.
Reported normalized growth values for the following compounds.

Smiles Notation	normalized growth
CC(C)Cn1c(=O)n(C)c(=O)c2[nH]cnc21	1.01
N[C@@H](Cc1cnc[nH]1)C(=O)O	0.978
COc1ccc(/C=C/c2cc(O)cc(O[C@@H]3O[C@H](CO)[C@@H](O)[C@H](O)[C@H]3O)c2)cc1	1
CN1CCC[C@H]1c1cccnc1	1.02
O=C(O)CC[N+](=O)[O-]	0.981

* * *

assay: chemical genetic growth profiling, strain panel (AID 1159580);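 also: tested at 20 µM; growth read once vehicle control cultures reached saturation at 30 °C; 1 = growth at the plate median or of vehicle wells; lower values mean less growth of the strain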; conditions: S. cerevisiae deletion strains, growth OD, locus YLR384C, strain iki3, stronger effect = lower value
Hit rate of the full screen: of about 5,500 compounds, about 2,000 (36%) were called active. Roughly 18% stayed inconclusive and do not appear here. This is one part of the list.
In this section, each of the compounds is paired with its reported normalized growth.
Property: normalized growth

Compound	Property	Measurement
ClC1C(Cl)C(Cl)C(Cl)C(Cl)C1Cl (configuration not stated)	normalized growth	0.991
CC(=O)NC1C(O)OC(COS(=O)(=O)O)C(OC2OC(C(=O)O)C(OC3OC(CO)C(OC4OC(C(=O)O)C(O)C(O)C4OS(=O)(=O)O)C(OS(=O)(=O)O)C3NS(=O)(=O)O)C(O)C2OS(=O)(=O)O)C1O (configuration not stated)	normalized growth	0.963
COc1cc([C@@H]2c3cc4c(cc3[C@H](O)[C@H]3COC(=O)[C@H]23)OCO4)cc(OC)c1OC	normalized growth	0.998
CC(C)[C@@H]1CC[C@@H](C)C[C@H]1OC(=O)c1ccccc1	normalized growth	1.03
CC1CC(OC(=O)c2ccccc2O)CC(C)(C)C1 (configuration not stated)	normalized growth	0.997
O=C(O)[C@H]1/C(=C/CO)O[C@@H]2CC(=O)N21	normalized growth	0.98
COC(=O)CC1C(C)(C(=O)c2ccoc2)CC2OCC34C(CC(=O)OC)C5(C)CC36OC3(C)OC1(C(OC(C)=O)C6(OC(C)=O)C5OC(=O)C(C)C)C24O3 (configuration not stated)	normalized growth	0.97
O=C(O)C1=C(CSc2nnnn2CS(=O)(=O)O)CS[C@@H]2C(NC(=O)[C@H](O)c3ccccc3)C(=O)N12 (some centres not stated)	normalized growth	0.987
CC(=O)OCC1=C(C(=O)O)N2C(=O)[C@@H](NC(=O)CSc3ccncc3)[C@H]2SC1	normalized growth	1.04
NC(=NCCCCCCN=C(N)N=C(N)Nc1ccc(Cl)cc1)N=C(N)Nc1ccc(Cl)cc1	normalized growth	0.057
CNC(=O)N(C)c1nnc(C(C)(C)C)s1	normalized growth	1.01
C/C(=C\CO)CC[C@H](C)CCC[C@H](C)CCCC(C)C	normalized growth	0.978
O=C(/C=C/c1ccc(O)cc1)c1ccccc1O	normalized growth	0.761
CCCCCC/C=C\CCCCCCCc1cccc(O)c1C(=O)O	normalized growth	0.97
CNC(C)[C@@H]1CC[C@@H](N)[C@@H](OC2[C@@H](N)C[C@@H](N)[C@H](OC3OC[C@](C)(O)[C@H](NC)[C@H]3O)[C@H]2O)O1 (some centres not stated)	normalized growth	0.992
O=C(N[C@@H](CO)[C@H](O)c1ccc([N+](=O)[O-])cc1)C(Cl)Cl	normalized growth	1.02
Cn1cnc2c1c(=O)[nH]c(=O)n2C	normalized growth	0.994
C=C(C)C1Cc2c(ccc3c(=O)c4c(oc23)COc2cc(OC)c(OC)cc2-4)O1 (configuration not stated)	normalized growth	1
CC(=CC1CCC(C)C2C1=C(C)CC2O)C(=O)O (configuration not stated)	normalized growth	1.02
Oc1cc2c(cc1O)C(c1ccccc1)CNCC2 (configuration not stated)	normalized growth	1.01
O=c1c(O)c(-c2ccccc2)oc2cc(O)ccc12	normalized growth	0.906
O=C(/C=C/c1ccc(O)cc1)c1ccc(O)cc1O	normalized growth	1.01
